# assayed-target: Induced myeloid leukemia cell differentiation protein Mcl-1/Bcl-2-like protein 11 (Homo sapiens, UniProt Q07820)
# Sequence (Q07820 whole entry): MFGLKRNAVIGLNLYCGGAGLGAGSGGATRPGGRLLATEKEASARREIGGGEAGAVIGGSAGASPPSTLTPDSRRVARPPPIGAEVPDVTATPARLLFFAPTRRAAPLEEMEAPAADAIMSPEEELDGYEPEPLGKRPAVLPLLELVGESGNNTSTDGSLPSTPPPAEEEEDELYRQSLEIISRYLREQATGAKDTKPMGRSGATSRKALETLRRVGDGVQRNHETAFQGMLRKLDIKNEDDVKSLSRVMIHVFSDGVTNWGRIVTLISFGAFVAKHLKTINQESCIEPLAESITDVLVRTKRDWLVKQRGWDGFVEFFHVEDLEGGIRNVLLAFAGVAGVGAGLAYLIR
# Sequence (O43521 whole entry, further chain): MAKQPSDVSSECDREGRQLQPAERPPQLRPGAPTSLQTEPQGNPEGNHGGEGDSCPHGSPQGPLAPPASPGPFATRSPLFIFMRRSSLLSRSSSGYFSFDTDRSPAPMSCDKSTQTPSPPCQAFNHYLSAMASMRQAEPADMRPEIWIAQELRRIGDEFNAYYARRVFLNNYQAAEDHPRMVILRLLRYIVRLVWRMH
# protocol-notes: Inhibition of N-terminal GST-tagged human recombinant Mcl-1 expressed in Escherichia coli /human Bim measured for 60 mins by TR-FRET based LanthaScreen Eu-Kinase binding assay
pIC50: −log10 of the molar value.
measured-quantity: pIC50

Consider the worked cases shown below.
{"compound": "C[C@@H]1CCN(C)C(=O)C[C@@H](Cc2ccc(Cl)c(Cl)c2)NC(=O)CN2C(=O)[C@H](CCc3ccccc32)NC(=O)C[C@H](Cc2ccc(Cl)cc2)N1", "reported": 6.13}
{"compound": "CN1CCCN[C@@H](Cc2ccc(S(C)(=N)=O)cc2)CC(=O)N[C@H]2CCc3ccccc3N(CC(=O)N[C@H](Cc3ccc(Cl)c(Cl)c3)CC1=O)C2=O (some centres not stated)", "reported": 6.29}
{"compound": "CN1CCCN[C@@H](Cc2ccc(Cl)cc2)CC(=O)N[C@H]2CCc3ccccc3N(CC(=O)N[C@H](Cc3ccc(Cl)c(CCc4ccccc4)c3)CC1=O)C2=O", "reported": 7.35}
{"compound": "CN1CCCN[C@@H](Cc2ccc(S(N)(=O)=O)cc2)CC(=O)N[C@H]2CCc3ccccc3N(CC(=O)N[C@H](Cc3ccc(Cl)c(Cl)c3)CC1=O)C2=O", "reported": 6.25}
{"compound": "CNC(=O)C[C@@H](Cc1ccc(Cl)c(-c2ccc(Cl)c(C)c2)c1)NC(=O)CN1C(=O)[C@@H](NC(=O)C[C@@H](N)Cc2ccc(Cl)cc2)CCc2ccccc21", "reported": 5.71}
{"compound": "CNC(=O)C[C@@H](Cc1ccc(Cl)c(CCc2ccccc2)c1)NC(=O)CN1C(=O)[C@@H](NC(=O)C[C@@H](N)Cc2ccc(S(C)(=O)=O)cc2)CCc2ccccc21", "reported": 6.88}
{"compound": "CN1CCCN[C@@H](Cc2ccc([S+](C)[O-])cc2)CC(=O)N[C@H]2CCc3ccccc3N(CC(=O)N[C@H](Cc3ccc(Cl)c(Cl)c3)CC1=O)C2=O (some centres not stated)", "reported": 6.13}
{"compound": "CNC(=O)C[C@@H](Cc1ccc(Cl)cc1)NC(=O)CN1C(=O)[C@@H](NC(=O)C[C@@H](N)Cc2ccccc2)CCc2ccccc21", "reported": 4.71}
{"compound": "CN1CCCN[C@@H](Cc2ccc(Cl)cc2)CC(=O)N[C@H]2CCc3ccccc3N(CC(=O)N[C@H](Cc3ccc(Cl)c(-c4cc5ccccc5o4)c3)CC1=O)C2=O", "reported": 5.98}

a = CNC(=O)C[C@@H](Cc1ccc(Cl)cc1)NC(=O)CN1C(=O)[C@@H](NC(=O)C[C@@H](N)Cc2ccc(Cl)cc2)CCc2ccccc21
b = CN1CCCN[C@@H](Cc2ccc(S(C)(=O)=O)cc2)CC(=O)N[C@H]2CCc3ccccc3N(CC(=O)N[C@H](Cc3ccc(Cl)c(C#Cc4ccccc4)c3)CC1=O)C2=O
**Query** When the recorded pIC50 values are compared, which is smaller: that of a or that of b ? Let me know the label of the one you choose.
**Result** a
(a: 4.90, b: 7.33)

----------
# assayed-target: Induced myeloid leukemia cell differentiation protein Mcl-1/Bcl-2-like protein 11 (Homo sapiens)
# protocol-notes: Inhibition of N-terminal GST-tagged human recombinant Mcl-1 expressed in Escherichia coli /human Bim measured for 60 mins by TR-FRET based LanthaScreen Eu-Kinase binding assay
measured-quantity: IC50 (nM)

{"item-smiles": "CNC(=O)C[C@@H](Cc1cccc(Cl)c1)NC(=O)CN1C(=O)[C@@H](NC(=O)C[C@@H](N)Cc2ccc(Cl)cc2)CCc2ccccc21", "measured-quantity": "IC50", "reported": 57300}
{"item-smiles": "CNC(=O)C[C@@H](Cc1ccc(Cl)c(Cl)c1)NC(=O)CN1C(=O)[C@@H](NC(=O)C[C@@H](N)Cc2ccc(Br)cc2)CCc2ccccc21", "measured-quantity": "IC50", "reported": 1490}
{"item-smiles": "CN1CCCN[C@@H](Cc2ccc(Cl)cc2)CC(=O)N[C@H]2CCc3ccccc3N(CC(=O)N[C@H](Cc3ccc(Cl)c(Cl)c3)CC1=O)C2=O", "measured-quantity": "IC50", "reported": 155}

A = CNC(=O)C[C@@H](Cc1ccc(Cl)c(Cl)c1)NC(=O)CN1C(=O)[C@@H](NC(=O)C[C@@H](N)Cc2ccc(Cl)cc2)CCc2ccccc21
B = CN1CCCN[C@@H](Cc2ccc(S(C)(=O)=O)cc2)CC(=O)N[C@H]2CCc3ccccc3N(CC(=O)N[C@H](Cc3ccc(Cl)c(Cl)c3)CC1=O)C2=O
C = CNC(=O)C[C@@H](Cc1ccc(Cl)c(Cc2ccccc2)c1)NC(=O)CN1C(=O)[C@@H](NC(=O)C[C@@H](N)Cc2ccc(Cl)cc2)CCc2ccccc21
**Query** Please list these in order of increasing IC50. Thank you! Lab note: final answer is the ordered label list.
**Result** B, A, C
(B: 116 nM, A: 1990 nM, C: 9210 nM)
